Where these numbers come from: patent US10308615B2

Measured IC50 of individual entries
- TEST SYSTEM: human vanin-1 (Homo sapiens (Human), UniProt O95497)
- Sequence (O95497 22-491): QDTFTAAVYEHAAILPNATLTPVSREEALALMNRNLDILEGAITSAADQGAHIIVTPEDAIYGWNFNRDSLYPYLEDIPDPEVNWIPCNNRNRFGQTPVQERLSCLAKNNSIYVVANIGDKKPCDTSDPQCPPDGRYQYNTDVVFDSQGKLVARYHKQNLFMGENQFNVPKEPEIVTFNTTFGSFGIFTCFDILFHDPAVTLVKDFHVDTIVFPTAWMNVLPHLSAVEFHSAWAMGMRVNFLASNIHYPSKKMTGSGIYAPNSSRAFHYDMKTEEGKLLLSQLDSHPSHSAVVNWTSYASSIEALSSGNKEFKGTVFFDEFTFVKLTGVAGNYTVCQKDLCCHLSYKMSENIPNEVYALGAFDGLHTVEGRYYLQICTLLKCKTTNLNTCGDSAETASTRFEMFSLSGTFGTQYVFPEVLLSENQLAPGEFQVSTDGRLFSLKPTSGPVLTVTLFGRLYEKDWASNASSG
- EXPERIMENT DESCRIPTION: Human Vanin-1 Enzyme Assay 2
- Type: biochemical
- CONDITIONS: 1 nM human vanin-1, 10 uM substrate, 45 min
State just the number; it will be interpreted in nM.

Consider the reported IC50 for these compounds:
Supply IC50 value. Item: CC(Nc1ncc(C(=O)c2cccc(C#N)c2)cn1)c1cccnc1 (stereo not drawn) 3.9

Supply IC50 value. Item: CC(Nc1ncc(C(=O)c2cccc(C#N)c2)cn1)c1ccc(C(N)=O)cc1 (stereo not drawn) [Example 8] 91.4

Supply IC50 value. Item: N#Cc1cccc(C(=O)c2cnc(NC3(c4ccccc4)CCC3)nc2)c1 12.4

Supply IC50 value. Item: Cc1ccc(CNc2ncc(C(=O)c3cccc(C(F)(F)F)c3)cn2)cn1 10.6

Supply IC50 value. Item: O=C(c1cnc(NCc2cncnc2)nc1)c1cccc(C(F)(F)F)c1 11.3

Further cases:
Supply IC50 value. Item: N#Cc1cccc(C(=O)c2cnc(NCc3cnccn3)nc2)c1 31.8

Supply IC50 value. Item: NC(=O)c1ccc(CNc2ncc(C(=O)c3cccc(C(F)(F)F)c3)cn2)cc1 55.9

Supply IC50 value. Item: O=C(c1cnc(NCc2cncnc2)nc1)c1ccnc(C(F)(F)F)c1 280

Supply IC50 value. Item: N#Cc1cccc(C(=O)c2cnc(NCc3cncnc3)nc2)c1 37.8

---

- TEST SYSTEM: human vanin-1 (Homo sapiens (Human), UniProt O95497)
- EXPERIMENT DESCRIPTION: Human Vanin-1 Enzyme Assay 3
- Format: biochemical
- CONDITIONS: 2 nM human vanin-1, 10 uM substrate, 15 min
Each record is given satisfied if its reported IC50 is strictly below 200 nM. Records at or above 200 nM are given not satisfied.

Solved entries:
is_below(IC50, 200 nM) for O=C(c1cnc(NCc2cccnc2)nc1)c1cc(F)cc(C(F)(F)F)c1 ? satisfied

is_below(IC50, 200 nM) for NC(=O)c1ccc(CNc2ncc(C(=O)c3ccccc3)cn2)cn1 ? not satisfied

is_below(IC50, 200 nM) for O=C(c1cnc(NC2(c3ccccc3)CC2)nc1)c1cccc(C(F)(F)F)c1 ? satisfied

is_below(IC50, 200 nM) for CS(=O)(=O)c1cccc(C(=O)c2cnc(NCc3ccc(C#N)cc3)nc2)c1 ? satisfied

is_below(IC50, 200 nM) for Cc1cccc(C(=O)c2cnc(NCc3ccncc3)nc2)c1 ? not satisfied

Please turn your attention to the following entry.
is_below(IC50, 200 nM) for NC(=O)c1ccc(CNc2ncc(C(=O)c3ccc(F)c(C(F)(F)F)c3)cn2)cc1 ? satisfied

---

- TEST SYSTEM: human vanin-1 (Homo sapiens (Human), UniProt O95497)
- EXPERIMENT DESCRIPTION: Human Vanin-1 Enzyme Assay 1
- Assay type: biochemical
- CONDITIONS: 25 pM human vanin-1, 50 uM pantetheine 7-amino-4-trifluoromethylcoumarin, 30 min preincubation, 60 min
- Procedure: Human Vanin-1 Enzyme Assay 1. The in vitro assay measures enzymatic cleavage of the fluorescently-labeled vanin substrate, pantetheine 7-amino-4-trifluoromethylcoumarin, by human vanin-1. The vanin-1 protein was prepared in-house from a construct expressing the extracellular domain of human vanin-1 (GenBank ID NM_004666) preceded N-terminally by the honey bee melittin signal peptide, a GSG linker sequence, a His6X tag and a FLAG tag. […]
pIC50: −log10 of the molar value.
Classify by measured pIC50: class 1 if it is equal to or exceeds 6, class 0 if it is smaller.

Confirm if pIC50 reported for the compound CC(C)(Nc1ncc(C(=O)c2ccc3c(c2)OCCO3)cn1)c1ccccc1 [Example 124] is 6 or above. class 1

Further cases:
Confirm if pIC50 reported for the compound N#Cc1cccc(C(=O)c2cnc(NCC3CCOCC3)nc2)c1 [Example 163] is 6 or above. class 0

Confirm if pIC50 reported for the compound COc1ccc(CNc2ccc(C(=O)c3cccc(C(F)(F)F)c3)nn2)cc1 [Example 88] is 6 or above. class 0

---

- TEST SYSTEM: human vanin-1 (Homo sapiens (Human))
- EXPERIMENT DESCRIPTION: Human Vanin-1 Enzyme Assay 2
- Type: biochemical
- CONDITIONS: 1 nM human vanin-1, 10 uM substrate, 45 min
Measured pIC50 of individual entries
Conceptually, pIC50 converts a concentration in mol/L into minus its log10.

Supply pIC50 value. Item: O=C(c1cnc(NC2(c3cncnc3)CC2)nc1)c1cccc(C(F)(F)F)c1 [Example 16] 8.59

Supply pIC50 value. Item: N#Cc1cccc(C(=O)c2cnc(NCc3cnc(N)nc3)nc2)c1 [Example 4] 7.68

Supply pIC50 value. Item: CC(Nc1ncc(C(=O)c2cccc(C#N)c2)cn1)c1cncnc1 (stereo not shown) [Example 133] 7.81

# evaluate next
Supply pIC50 value. Item: CS(=O)(=O)c1cccc(C(=O)c2cnc(NCc3ccc(C#N)cc3)nc2)c1 [Example 126] 7.36

---

- TEST SYSTEM: human vanin-1 (Homo sapiens (Human))
- EXPERIMENT DESCRIPTION: Human Vanin-1 Enzyme Assay 3
- Type: biochemical
- CONDITIONS: 2 nM human vanin-1, 10 uM substrate, 15 min
Each record is given label 1 if its reported IC50 is strictly below 80 nM. Records at or above 80 nM are given label 0.

Solved entries:
is_below(IC50, 80 nM) for CCN1CCCC1CNc1ncc(C(=O)c2cccc(C(F)(F)F)c2)cn1 (stereo not shown) ? label 0

is_below(IC50, 80 nM) for NC(=O)c1ccc(CNc2ncc(C(=O)c3cc(F)cc(C(F)(F)F)c3)cn2)cc1 ? label 0

is_below(IC50, 80 nM) for NC(=O)c1ccc(CNc2ncc(C(=O)c3cccc(C(F)(F)F)c3)cn2)cn1 ? label 1

is_below(IC50, 80 nM) for O=C(c1ccc(C(F)(F)F)cc1)c1cnc(NCc2cccnc2)nc1 ? label 1

is_below(IC50, 80 nM) for O=C(c1cnc(NCc2ccc(F)cc2)nc1)c1ccc(F)c(C(F)(F)F)c1 ? label 1

Further cases:
is_below(IC50, 80 nM) for CC(C)(Nc1ncc(C(=O)c2ccc(F)c(F)c2)cn1)c1ccccc1 ? label 0

is_below(IC50, 80 nM) for CS(=O)(=O)c1cccc(C(=O)c2cnc(NCc3ccc(C(N)=O)cc3)nc2)c1 ? label 0

is_below(IC50, 80 nM) for N#Cc1cccc(CNc2ncc(C(=O)c3cccc(C#N)c3)cn2)c1 ? label 1

is_below(IC50, 80 nM) for O=C(c1cnc(NCc2cccnc2)nc1)c1cccc(C(F)(F)F)c1 ? label 1

is_below(IC50, 80 nM) for COc1ccc(C(=O)c2cnc(NCc3ccccn3)nc2)cc1 ? label 0

is_below(IC50, 80 nM) for O=C(c1ccccc1)c1cnc(NCc2cnccn2)nc1 ? label 0

is_below(IC50, 80 nM) for NC(=O)c1ccc(CNc2ncc(C(=O)c3ccc(F)c(F)c3)cn2)cc1 ? label 0

is_below(IC50, 80 nM) for Cc1cccc(C(=O)c2cnc(NCc3ccccc3)nc2)c1 ? label 0

is_below(IC50, 80 nM) for COc1ccc(CNc2ncc(C(=O)c3ccc(C#N)cc3)cn2)cc1 ? label 0

is_below(IC50, 80 nM) for COc1ccc(C(=O)c2cnc(NCc3cccc(C#N)c3)nc2)cc1 ? label 0

is_below(IC50, 80 nM) for N#Cc1cccc(C(=O)c2cnc(NCc3ccc(F)cc3F)nc2)c1 ? label 1

is_below(IC50, 80 nM) for O=C(c1ccccc1)c1cnc(NCc2ccccc2F)nc1 ? label 0

---

Measured IC50 of individual entries
- TEST SYSTEM: human vanin-1 (Homo sapiens (Human), UniProt O95497)
- EXPERIMENT DESCRIPTION: Human Vanin-1 Enzyme Assay 3
- Type: biochemical
- CONDITIONS: 2 nM human vanin-1, 10 uM substrate, 15 min

Consider the reported IC50 for these compounds:
Under human vanin-1 (Homo sapiens (Human), UniProt O95497), report IC50 for O=C(c1cnc(OCc2ccc(F)cc2)nc1)c1cccc(C(F)(F)F)c1 [Example 46] > 0.213 µM

Under human vanin-1 (Homo sapiens (Human), UniProt O95497), report IC50 for COc1ccc(CNc2ccc(C(=O)c3cccc(C(F)(F)F)c3)nn2)cc1 [Example 88] 0.0093 µM

# evaluate next
Under human vanin-1 (Homo sapiens (Human), UniProt O95497), report IC50 for O=C(c1ccccc1)c1cnc(NC2(c3cccnc3)CC2)nc1 [Example 114] 0.17 µM

---

- TEST SYSTEM: human vanin-1 (Homo sapiens (Human), UniProt O95497)
- EXPERIMENT DESCRIPTION: Human Vanin-1 Enzyme Assay 2
- Format: biochemical
- CONDITIONS: 1 nM human vanin-1, 10 uM substrate, 45 min
MEASUREMENT NAME: IC50 (nM)
State just the number; it will be interpreted in nM.

Consider the reported IC50 for these compounds:
Supply IC50 value. Item: O=C(c1cnc(NCc2ccccc2)nc1)c1cccc(Cl)c1 317

Supply IC50 value. Item: O=C(c1ccccc1)c1cnc(NCc2cccnc2)nc1 108

Supply IC50 value. Item: NC(=O)c1ccc(CNc2ncc(C(=O)c3cc(F)cc(C(F)(F)F)c3)cn2)cc1 242

Supply IC50 value. Item: O=C(c1cccc(C(F)(F)F)c1)c1ccc(NCc2cccnc2)nn1 783

Supply IC50 value. Item: N#Cc1cccc(C(=O)c2cnc(NCC3CCOCC3)nc2)c1 2230

# evaluate next
Supply IC50 value. Item: Cc1cccc(C(=O)c2cnc(NCc3cccnc3)nc2)c1 31.5
